Test system: A549/ATCC NSCLC
experimentDescription: NCI-60 one-dose screen, 48 h (100 = growth as untreated, 0 = no growth, -100 = all killed)
measurementContext: 10 µM unless noted
About 83,000 compounds went through this panel and 20% of them were active in at least one assay; those are over-represented in the sample as a whole. Active and inactive are the calls of the source. How the source made its calls: active means growth percent below 10; inactive means the rest.
readoutKind: growth

- CN1CCN(Cc2ccc(NC(=O)c3cncc(C#Cc4cnc(N)c5ccc(F)cc45)c3)cc2C(F)(F)F)CC1: 24.4% (inactive)
- C=CCOC(=O)C1=C(C)N(CC)C(=O)NC1c1c(Cl)n(C)c2ccccc12 (stereo not drawn): 87.6% (inactive)

Let us move to another entry and its growth.
Quick check: growth on A549/ATCC NSCLC, item "CN1CCN(C(=O)C(C)(C)c2ccc(C(=O)Nc3cn4cc(-c5ccncc5)ccc4n3)cc2)CC1" ?
10.2% (inactive)
